Target: IRAK4 (Homo sapiens, UniProt Q9NWZ3)
Construct: Degradation of IRAK4 in OCI-LY10 was quantitatively measured using Meso Scale Discovery technology; endogenous in cells; host or cells: OCI-LY10
Sequence (Q9NWZ3 whole entry): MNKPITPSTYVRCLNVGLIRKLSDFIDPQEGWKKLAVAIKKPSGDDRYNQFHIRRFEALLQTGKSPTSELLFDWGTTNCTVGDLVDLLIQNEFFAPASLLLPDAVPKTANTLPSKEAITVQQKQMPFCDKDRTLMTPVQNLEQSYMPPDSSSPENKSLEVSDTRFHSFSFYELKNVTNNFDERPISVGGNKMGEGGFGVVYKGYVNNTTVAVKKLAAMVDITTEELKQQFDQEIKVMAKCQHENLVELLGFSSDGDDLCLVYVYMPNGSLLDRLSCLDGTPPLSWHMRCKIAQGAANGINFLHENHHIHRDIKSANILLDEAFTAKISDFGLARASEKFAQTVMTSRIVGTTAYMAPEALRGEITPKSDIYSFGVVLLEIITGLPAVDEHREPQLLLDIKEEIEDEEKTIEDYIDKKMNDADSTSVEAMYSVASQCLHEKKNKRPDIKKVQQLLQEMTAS
Test: IRAK4 MSD Degradation in OCI-LY10
Assay type: cell-based
Conditions: OCI-LY10 cells, 4 hrs incubation, MSD; read-out: IRAK4 degradation in OCI-LY10 at 4 hrs: DC50
Method: Degradation of IRAK4 in OCI-LY10 was quantitatively measured using Meso Scale Discovery technology. […] Compounds were then added to the assay plates with a final top concentration of 1 to 10 μM in a 1:3 dilution series with total of 8 doses. […] The assay plates were then incubated at room temperature for 1 hour, washed 3 times with 150 μL/well TBST buffer, and 150 μL/well MSD reading buffer (Meso Scale Discovery catalog number R92TC-2) was added. […]
Examples of molecules with documented DC50 follow.

Worked examples follow.
INSERT INTO results (molecule, value_reported) VALUES
  ('Cn1c(=O)n(C2CCC(=O)NC2=O)c2cccc(C3CCN(C[C@H]4CC[C@H](n5cc6cc(NC(=O)c7cccc(C#N)n7)ccc6n5)CC4)CC3(F)F)c21 (some centres unmarked) [I-612]', '> 200 nM'),
  ('CCn1c(=O)n(C2CCC(=O)NC2=O)c2cccc(C#CCO[C@H]3CCN(C[C@H]4CC[C@H](n5cc(NC(=O)c6cnn7ccc(N8C[C@H]9C[C@@H]8CO9)nc67)c(C(F)F)n5)CC4)C[C@@H]3C)c21 (some centres unmarked) [I-59]', '< 10 nM'),
  ('CO[C@H]1CN(c2cccc3c2n(C)c(=O)n3C2CCC(=O)NC2=O)C[C@H]1N(C)C[C@H]1CC[C@H](n2cc3cc(NC(=O)c4cccc(C(F)(F)F)n4)ccc3n2)CC1 (some centres unmarked) [I-493]', '> 200 nM');

Task: Given Cn1c(=O)n(C2CCC(=O)NC2=O)c2cccc([C@@H]3CCN(C[C@H]4CC[C@H](n5cc6cc(NC(=O)c7cccc(C#N)n7)ncc6n5)CC4)C[C@@H]3F)c21 (some centres unmarked) [I-636] , state its recorded DC50.
Output: > 200 nM

Task: Given Cn1c(=O)n(C2CCC(=O)NC2=O)c2cccc(C#CCN3CCN(C[C@H]4CC[C@H](n5cc(NC(=O)c6cccc(C#N)n6)c(C(C)(C)O)n5)CC4)CC3)c21 (some centres unmarked) [I-263] , state its recorded DC50.
Output: > 200 nM

Task: Given Cn1c(=O)n(C2CCC(=O)NC2=O)c2cccc(N3CC(N4CCN([C@H]5CC[C@H](n6cc(NC(=O)c7cnn8ccc(N9C[C@H]%10C[C@@H]9CO%10)nc78)c(C(F)F)n6)CC5)CC4)C3)c21 (some centres unmarked) [I-730] , state its recorded DC50.
Output: > 200 nM

Task: Given Cn1c(=O)n(C2CCC(=O)NC2=O)c2cccc(C#CCN3CCN(C[C@H]4CC[C@H](n5cc(NC(=O)c6cnn7ccc(N8CC[C@]9(CCOC9)C8)nc67)c(C(F)F)n5)CC4)CC3)c21 (some centres unmarked) [I-418] , state its recorded DC50.
Output: 10 to 100 nM

Task: Given Cn1c(=O)n(C2CCC(=O)NC2=O)c2cccc(C#CCN3CCN(C[C@H]4CC[C@H](n5cc(NC(=O)c6cccc(C(F)(F)F)n6)c(C(F)F)n5)CC4)CC3)c21 (some centres unmarked) [I-211] , state its recorded DC50.
Output: > 200 nM

Task: Given COc1cc2nn([C@H]3CC[C@H](CN4CC=C(c5ccc6c(N7CCC(=O)NC7=O)cncc6c5)C(F)(F)C4)CC3)cc2cc1NC(=O)c1cccc(C(F)(F)F)n1 [I-470] , state its recorded DC50.
Output: > 200 nM

Task: Given CN(C[C@H]1CC[C@H](n2cc(NC(=O)c3cnn4ccc(C5COC5)nc34)c(C(F)F)n2)CC1)C1CCN(c2cccc3c2n(C)c(=O)n3C2CCC(=O)NC2=O)CC1 (some centres unmarked) [I-361] , state its recorded DC50.
Output: > 200 nM

Task: Given Cn1c(=O)n(C2CCC(=O)NC2=O)c2ccc(N3CC(CO[C@@H]4CCN(CC5CCC(n6cc(NC(=O)c7cnn8ccc(N9C[C@H]%10C[C@@H]9CO%10)nc78)c(C(F)F)n6)CC5)C[C@@H]4F)C3)c(F)c21 (some centres unmarked) [I-725] , state its recorded DC50.
Output: > 200 nM
